Target: C-C chemokine receptor type 5 (Homo sapiens)
Sequence (P51681 whole entry): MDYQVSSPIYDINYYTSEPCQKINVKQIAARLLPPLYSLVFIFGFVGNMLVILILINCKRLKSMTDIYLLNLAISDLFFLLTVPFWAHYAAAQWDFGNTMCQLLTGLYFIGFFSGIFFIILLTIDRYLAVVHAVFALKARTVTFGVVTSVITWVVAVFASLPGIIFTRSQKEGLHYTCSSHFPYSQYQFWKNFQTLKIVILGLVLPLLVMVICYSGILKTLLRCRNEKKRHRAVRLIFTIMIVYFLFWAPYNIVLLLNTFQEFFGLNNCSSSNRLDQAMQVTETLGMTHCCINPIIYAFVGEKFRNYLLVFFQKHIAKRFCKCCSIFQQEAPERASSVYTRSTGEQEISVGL
Assay: Antagonist activity at CCR5 (unknown origin) expressed in HEK293 cells co-expressing Galpha16 assessed as inhibition of RANTES-induced calcium flux preincubated for 10 mins followed by RANTES addition by fluo-4AM-based fluorescence assay
Measured pIC50, listed per entry.
pIC50 here is simply -log10 of the concentration when that concentration is written in mol/L.

Worked examples follow.
Cc1cscc1[C@H](CCN1[C@@H]2CC[C@H]1C[C@H](n1c(C)nnc1C(C)C)C2)NC(=O)C1CCC(F)(F)CC1 :: 8.09
Cc1nnc(C(C)C)n1[C@@H]1C[C@H]2CC[C@@H](C1)N2CC[C@H](NC(=O)C(C)(C)C(F)(F)F)c1cccs1 :: 8.27
Cc1nnc(C(C)C)n1[C@@H]1C[C@H]2CC[C@@H](C1)N2CC[C@H](NC(=O)[C@@H]1CCC(=O)N1)c1cccs1 :: 7.69
Cc1nnc(C(C)C)n1[C@@H]1C[C@H]2CC[C@@H](C1)N2CC[C@H](NC(=O)C1CCC(=O)C1)c1cccs1 (some centres not stated) :: 8.54

pIC50 recorded for this compound, Cc1csc([C@H](CCN2[C@@H]3CC[C@H]2C[C@H](n2c(C)nnc2C(C)C)C3)NC(=O)C2CCC(F)(F)CC2)c1 , is 8.17

pIC50 recorded for this compound, Cc1ccc([C@H](CCN2[C@@H]3CC[C@H]2C[C@H](n2c(C)nnc2C(C)C)C3)NC(=O)Cc2ccc(F)cc2)s1 , is 7.48

pIC50 recorded for this compound, Cc1nnc(C(C)C)n1[C@@H]1C[C@H]2CC[C@@H](C1)N2CC[C@H](NC(=O)C1CCC(F)(F)C1)c1cccs1 (some centres not stated) , is 8.64

Where do these numbers come from? They come from ChEMBL document CHEMBL4229569.
